- targetDesc: Phosphodiesterase; PDE3 & PDE4 (Homo sapiens) (UniProt P27815+Q14432+Q08499+Q07343+Q13370+Q08493)
- protocolNotes: In vivo inhibition of cyclic AMP phosphodiesterase from dog heart
- experimentalContext: Canis lupus familiaris; target entry is the homologue from another species; in the assay text read “In vitro” for “In vivo”
// IC25 lookup, one value per entry
Write the answer as a number in nM, unit excluded.

Answered examples (10):
>>> measuredvalue("COC(=O)CN(C(=O)CCCOc1ccc2c(c1)CN1CC(=O)NC1=N2)C1CCCCC1")
10
>>> measuredvalue("CC(C)[C@@H]1C(=O)NC2=Nc3ccc(OCCCC(=O)N(C)C4CCCCC4)cc3CN21")
6000
>>> measuredvalue("NC(=O)CCCOc1ccc2c(c1)CN1CC(=O)NC1=N2")
380
>>> measuredvalue("CC(O)[C@H]1C(=O)NC2=Nc3ccc(OCCCC(=O)N(C)C4CCCCC4)cc3CN21 (some centres undefined)")
1700
>>> measuredvalue("CNC(=O)CCCOc1ccc2c(c1)CN1CC(=O)NC1=N2")
1300
>>> measuredvalue("CCOC(=O)CCCOc1ccc2c(c1)CN1CC(=O)NC1=N2")
440
>>> measuredvalue("O=C1CN2Cc3cc(OCCCC(=O)N(C(CO)CO)C4CCCCC4)ccc3N=C2N1")
26
>>> measuredvalue("CN(C(=O)CCCOc1ccc2c(c1)CN1CCC(=O)NC1=N2)C1CCCCC1")
100
>>> measuredvalue("CN(C(=O)CCCOc1ccc2c(c1)NC1=NC(=O)CN1C2)C1CCCCC1")
64
>>> measuredvalue("O=C(O)CCCOc1ccc2c(c1)CN1CC(=O)NC1=N2")
130

**Q:** Sample COC1=NC2=Nc3ccc(OCCCC(=O)N(C)C4CCCCC4)cc3CN2C1 — what was its IC25?
**A:** 2700

**Q:** Reported IC25, molecule CN(C(=O)CCCOc1ccc2c(c1)CN1C(=N2)NC(=O)[C@H]1c1ccccc1)C1CCCCC1 : ____
**A:** 3300

**Q:** Query: IC25; subject: CN(C(=O)CCCS(=O)(=O)c1ccc2c(c1)CN1CC(=O)NC1=N2)C1CCCCC1
**A:** 6600

**Q:** Would you mind telling me what IC25 value was observed for O=C1CN2Cc3cc(OCCCC(=O)N(CCCCCCO)C4CCCCC4)ccc3N=C2N1 ?
**A:** 2

**Q:** Requested field: IC25. Item: CN(C(=O)CCCOc1ccc2c(c1)CN1C(=N2)NC(=O)[C@@H]1c1ccccc1)C1CCCCC1
**A:** 4200

**Q:** Suppose we examine the molecule CN(C(=O)CCCOc1ccc2c(c1)CN1C(=N2)NC(=O)[C@H]1CO)C1CCCCC1 ; what IC25 value has been reported?
**A:** 72

**Q:** Name the recorded IC25 for CN(C(=O)CCCOc1ccc2c(c1Cl)CN1CC(=O)NC1=N2)C1CCCCC1 .
**A:** 100

**Q:** What does the data say about its IC25? Entry: O=C1CN2Cc3cc(OCCCC(=O)N(CCN4CCOCC4)C4CCCCC4)ccc3N=C2N1
**A:** 32

---

- targetDesc: Phosphodiesterase; PDE3 & PDE4 (Homo sapiens) (UniProt P27815+Q14432+Q08499+Q07343+Q13370+Q08493)
- protocolNotes: In vivo inhibition of cyclic AMP phosphodiesterase from dog heart
- experimentalContext: Canis lupus familiaris; target entry is the homologue from another species; in the assay text read “In vitro” for “In vivo”
measureName: IC25

Some molecules with recorded IC25:
>>> measuredvalue("C[C@@H]1C(=O)NC2=Nc3ccc(OCCCC(=O)N(C)C4CCCCC4)cc3CN21")
"27 nM"
>>> measuredvalue("NC(=O)CN(C(=O)CCCOc1ccc2c(c1)CN1CC(=O)NC1=N2)C1CCCCC1")
"100 nM"
>>> measuredvalue("CC[C@H]1C(=O)NC2=Nc3ccc(OCCCC(=O)N(C)C4CCCCC4)cc3CN21")
"450 nM"
>>> measuredvalue("CN(C(=O)CCCOc1ccc2c(c1)CN1CC(=O)NC1=N2)C1CCCCCC1")
"4.2 nM"
>>> measuredvalue("O=C1CN2Cc3cc(OCCCC(=O)N(CCCCO)C4CCCCC4)ccc3N=C2N1")
"7.2 nM"

**Q:** Form field: reported IC25 of CN(C(=O)CCCOc1ccc2c(c1)CN1CC(=O)NC1=N2)C1CCCC1
**A:** 25 nM

**Q:** Value lookup for IC25; key = CN(C(=O)CCCOc1ccc2c(c1)CN1CC(=O)NC1=N2)C1CCC(O)CC1 (stereo not given)
**A:** 290 nM

**Q:** Report IC25 for C[C@H]1C(=O)NC2=Nc3ccc(OCCCC(=O)N(C)C4CCCCC4)cc3CN21 please.
**A:** 78 nM

**Q:** Could you tell me which IC25 is on file for CN(C(=O)CCCOc1ccc2c(c1)CN1C(=N2)NC(=O)[C@@H]1Cc1ccccc1)C1CCCCC1 ?
**A:** > 10000 nM

**Q:** Dear colleague, I am looking for the recorded IC25 of the following molecule: CCN(C(=O)CCCOc1ccc2c(c1)CN1CC(=O)NC1=N2)C1CCCCC1
**A:** 5.2 nM

---

- targetDesc: Phosphodiesterase 3 (Homo sapiens, UniProt Q14432+Q13370)
- protocolNotes: In vitro inhibition of cyclic AMP phosphodiesterase from human platelets
Label Condition met when IC50 < 20 nM; otherwise Condition not met.

Worked examples follow.
>>> assignedcategory("CN(C(=O)CCCOc1ccc2c(c1)CN1C(=N2)NC(=O)[C@@H]1Cc1ccccc1)C1CCCCC1")
"Condition not met"
>>> assignedcategory("CC1c2cc(OCCCC(=O)N(C)C3CCCCC3)ccc2NC2=NC(=O)CN21 (stereo not given)")
"Condition met"

**Q:** Given CN(C(=O)CCCOc1ccc2c(c1)CN1CC(=O)NC1=N2)C1CCC(O)CC1 (stereo not given) , is recorded IC50 strictly lower than 20 nM?
**A:** Condition not met

**Q:** Bench note: check whether CN(C(=O)CCCOc1ccc2c(c1)CN1C(=O)CNC1=N2)C1CCCCC1 shows IC50 below 20 nM
**A:** Condition not met

**Q:** Consider CN(C(=O)CCCOc1ccc2c(c1)CN1CC(=O)NC1=N2)C(c1ccccc1)c1ccccc1 . Does its IC50 lie strictly below 20 nM?
**A:** Condition met

**Q:** Criterion: IC50 strictly below 20 nM. Is it met by C=c1c(=O)[nH]c2n1Cc1cc(OCCCC(=O)N(C)C3CCCCC3)ccc1N=2 ?
**A:** Condition met

**Q:** Lab log: compare recorded IC50 with 20 nM; is it strictly lower for CN(C(=O)CCCOc1ccc2c(c1)CN1C(=N2)NC(=O)[C@H]1Cc1ccccc1)C1CCCCC1 ?
**A:** Condition not met

**Q:** Could you please tell me whether IC50 recorded for CN(C(=O)CCCOc1ccc2nc3n(c(=O)c2c1)CC(=O)N3)C1CCCCC1 is less than 20 nM?
**A:** Condition not met

**Q:** Say whether its IC50 is strictly beneath 20 nM. Entry: O=C1CN2Cc3cc(OCCCC(=O)N(CCCCO)C4CCCCC4)ccc3N=C2N1
**A:** Condition met

**Q:** Would you kindly verify if IC50 of CN(Cc1ccccc1)C(=O)CCCOc1ccc2c(c1)CN1CC(=O)NC1=N2 is strictly less than 20 nM?
**A:** Condition not met

**Q:** Field: below-cutoff. Rule: recorded IC50 strictly less than 20 nM. Subject: CCOC(=O)CCCOc1ccc2c(c1)CN1CC(=O)NC1=N2
**A:** Condition not met

**Q:** Does this molecule meet the criterion IC50 < 20 nM? CC[C@H]1C(=O)NC2=Nc3ccc(OCCCC(=O)N(C)C4CCCCC4)cc3CN21
**A:** Condition not met

**Q:** Dear reviewer, please state whether CN(C(=O)CCCOc1ccc2c(c1)CN1C(=N2)NC(=O)C1(C)C)C1CCCCC1 has IC50 strictly beneath 20 nM.
**A:** Condition not met

**Q:** Given the entry O=C1CN2Cc3cc(OCCCC(=O)N4CCCC5CCCCC54)ccc3N=C2N1 (stereo not given) , would its reported IC50 be below 20 nM?
**A:** Condition met

**Q:** hey, is IC50 for O=C1CN2Cc3cc(OCCCC(=O)N(CCN4CCOCC4)C4CCCCC4)ccc3N=C2N1 lower than 20 nM or not?
**A:** Condition met

**Q:** Lab log: compare recorded IC50 with 20 nM; is it strictly lower for COC(=O)CN(C(=O)CCCOc1ccc2c(c1)CN1CC(=O)NC1=N2)C1CCCCC1 ?
**A:** Condition met

**Q:** Problem: For the molecule CN(C(=O)CCCOc1ccc2c(c1)CN1C(=N2)NC(=O)[C@H]1CO)C1CCCCC1 , is IC50 under 20 nM?
**A:** Condition met

**Q:** Is IC50 strictly under 20 nM for the entry CN(C(=O)CCCOc1ccc2c(c1)NC1=NC(=O)CN1C2)C1CCCCC1 ?
**A:** Condition not met

**Q:** Does the reported IC50 of O=C1CN2Cc3cc(OCCCC(=O)N(CCn4ccnc4)C4CCCCC4)ccc3N=C2N1 stay below 20 nM?
**A:** Condition met

**Q:** Does this molecule meet the criterion IC50 < 20 nM? CC(O)[C@@H]1C(=O)NC2=Nc3ccc(OCCCC(=O)N(C)C4CCCCC4)cc3CN21 (stereo not given in full)
**A:** Condition not met
